assay: inhibitors of NFkB activation in CF airway cells, SAR follow-up, KKLEB cells, panel, IL8 HTRF, NFkB-GFP (AID 651592); conditions: PAF/TNFa-induced NFkB-GFP / IL8 HTRF, CF-PAF assay, run 1;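 note: immortalized cystic fibrosis airway epithelial KKLEB cells with an NF-kB GFP reporter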
Measured Quantity: IC50 (µM)

In plain terms, CCOc1ccc(NCc2cc3c(C(C)(C)C)nn(-c4ccccc4)c3[nH]c2=O)cc1 has a documented IC50 of 12.8

In plain terms, O=C(Nc1ccc(N2CCN(C(=O)c3ccccc3Cl)CC2)cc1)c1cccnc1 has a documented IC50 of 3.68

In plain terms, O=C(Nc1ccc(N2CCN(C(=O)c3ccccc3F)CC2)cc1)c1ccccc1 has a documented IC50 of 8.36

In plain terms, O=C(Nc1ccc(N2CCN(C(=O)c3ccc(F)cc3)CC2)cc1)c1cncc(Br)c1 has a documented IC50 of 2.5

In plain terms, O=C(Nc1ccc(N2CCN(C(=O)c3ccccc3)CC2)cc1)c1ccccc1 has a documented IC50 of 30.5

A. O=C(Nc1ccc(N2CCN(C(=O)c3ccccc3Cl)CC2)cc1)c1ccccc1
B. O=C(Nc1ccc(N2CCN(C(=O)c3ccccc3)CC2)cc1)c1cccnc1
Hello, I am sorting some records. Could you say if A or B has the smaller IC50 value? State your choice using its label. A
(A: 3.91 µM, B: 17 µM)

* * *

biological target: UniProt P10145; assay: inhibitors of NFkB activation in CF airway cells, SAR follow-up, KKLEB cells, panel, IL8 HTRF, NFkB-GFP (AID 651592); conditions: PAF/TNFa-induced NFkB-GFP / IL8 HTRF, IL8, PAF-induced, run 1;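 note: immortalized cystic fibrosis airway epithelial KKLEB cells with an NF-kB GFP reporter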
Sequence (P10145 whole entry, looked up): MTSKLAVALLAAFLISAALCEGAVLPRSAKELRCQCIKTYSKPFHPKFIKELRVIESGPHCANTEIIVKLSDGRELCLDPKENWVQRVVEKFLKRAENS
pIC50: −log10 of the molar value.
Measured Quantity: pIC50

1. CCOc1ccc(NCc2cc3c(C(C)(C)C)nn(-c4ccccc4)c3[nH]c2=O)cc1
2. O=C(Nc1ccc(N2CCN(C(=O)c3ccccc3Cl)CC2)cc1)c1cncc(Br)c1
Hello, I am sorting some records. Could you say if 1 or 2 has the smaller pIC50 value? State your choice using its label. 2

* * *

test: inhibitors of NFkB activation in CF airway cells, SAR follow-up, KKLEB cells, panel, IL8 HTRF, NFkB-GFP (AID 651592); conditions: PAF/TNFa-induced NFkB-GFP / IL8 HTRF, CF-PAF assay, run 2;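 note: immortalized cystic fibrosis airway epithelial KKLEB cells with an NF-kB GFP reporter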
pIC50: −log10 of the molar value.
Measured Quantity: pIC50

In plain terms, O=C(Nc1ccc(N2CCN(C(=O)c3ccc(F)cc3)CC2)cc1)c1cc(Br)cc(Br)c1 has a documented pIC50 of < 4.18

In plain terms, O=C(Nc1ccc(N2CCN(C(=O)c3ccc(F)cc3)CC2)cc1)c1ccccn1 has a documented pIC50 of < 4.18

In plain terms, CCOc1ccc(NCc2cc3c(C)nn(-c4ccccc4)c3[nH]c2=O)cc1 has a documented pIC50 of 4.80

In plain terms, O=C(Nc1ccc(N2CCN(C(=O)c3ccccc3)CC2)cc1)c1ccncc1 has a documented pIC50 of 4.42

In plain terms, O=C(Nc1ccc(N2CCN(C(=O)c3ccc(F)cc3)CC2)cc1)c1cccc(Br)c1 has a documented pIC50 of 4.67

In plain terms, O=C(Nc1ccc(N2CCN(C(=O)c3ccc(F)cc3)CC2)cc1)c1ccncc1 has a documented pIC50 of < 4.18

In plain terms, O=C(Nc1ccc(N2CCN(C(=O)c3ccccc3F)CC2)cc1)c1cc(Br)cc(Br)c1 has a documented pIC50 of < 4.18

Now, please, on to the next compound.
In plain terms, O=C(Nc1ccc(N2CCN(C(=O)c3ccccc3)CC2)cc1)c1cc(Br)cc(Br)c1 has a documented pIC50 of < 4.18

Reference for the values: PubChem BioAssay AID651592
